assay: Cytotoxicity against human M059K cells assessed as reduction in cell viability incubated for 72 hrs by MTT assay; format: functional, cell-based
OBSERVATION TYPE: IC50 (nM)
Write the number in nM without appending the unit.

Exam item: Dear colleague, I am looking for the recorded IC50 of the following compound: COc1cc2c(cc1O)CCN[C@]21CS[C@@H]2c3c(OC(C)=O)c(C)c4c(c3[C@@H](COC1=O)N1[C@@H]2[C@H]2c3c(cc(C)c(OC)c3O)C[C@@H]([C@@H]1O)N2C)OCO4
Marked response: 0.2

###

tested on: 9L; assay: Cytotoxicity against rat 9L cells assessed as reduction in cell viability incubated for 24 hrs by tryphan-blue dye based assay; type: functional
OBSERVATION TYPE: pIC50
# pIC50 is unitless: minus log10 of the molar concentration; print number only

Exam item: Dear colleague, I am looking for the recorded pIC50 of the following compound: COC(=O)[C@H]1[C@H]2C[C@@H]3c4[nH]c5cc(OC)ccc5c4CCN3C[C@H]2C[C@@H](OC(=O)c2cc(OC)c(OC)c(OC)c2)[C@@H]1OC [RESERPINE]
Marked response: 6.00

###

test: Antiproliferative activity against human TMZ-resistant U-251MG cell assessed as reduction in cell growth incubated for 48 hrs by MTT assay; format: functional, cell-based; settings: U-251, 48 h
OBSERVATION TYPE: pIC50
# pIC50 is unitless: minus log10 of the molar concentration; print number only

Exam item: Dear colleague, I am looking for the recorded pIC50 of the following compound: COc1ccc2c(c1OC)C(=O)O[C@@H]2[C@H]1c2c(cc3c(c2OC)OCO3)CCN1C
Marked response: 4.52

###

test system: CCF-STTG1; assay: Cytotoxicity against human CCF-STTG1 cells assessed as reduction in cell viability incubated for 48 hrs by MTT assay; type: functional, cell-based; conditions: CCF-STTG1, 48 h
# IC50 values compiled below
Write the number in µM without appending the unit.

Some solved entries appear below for comparison.
>  <TEST SMILES>
CC(=O)O[C@H]1c2cc3c(cc2[C@]24C=C[C@H](O)C[C@H]2N1C[C@H]4O)OCO3

>  <RECORDED RESULT>
29.4

$$$$
>  <TEST SMILES>
COC(=O)N1CCc2cc(O)c(OC)c3c4c(cc1c23)C(=O)C=C(OC)C4=O

>  <RECORDED RESULT>
9.2

$$$$

The record that follows has no IC50 shown yet.
Exam item: Dear colleague, I am looking for the recorded IC50 of the following compound: CO[C@H]1C=C[C@]23c4cc5c(cc4[C@H](OC(C)=O)N(C[C@H]2O)[C@@H]3C1)OCO5
Marked response: 27.1
